This collection of values is drawn from patent US20240279214A1.

test.system: a4b1 integrin interaction with VCAM-1 (Homo sapiens, UniProt P05556+P13612)
Construct: capture of a4b1 integrin expressing cells Jurkat; endogenous in cells; host or cells: Jurkat
Sequence (P13612 34-1032): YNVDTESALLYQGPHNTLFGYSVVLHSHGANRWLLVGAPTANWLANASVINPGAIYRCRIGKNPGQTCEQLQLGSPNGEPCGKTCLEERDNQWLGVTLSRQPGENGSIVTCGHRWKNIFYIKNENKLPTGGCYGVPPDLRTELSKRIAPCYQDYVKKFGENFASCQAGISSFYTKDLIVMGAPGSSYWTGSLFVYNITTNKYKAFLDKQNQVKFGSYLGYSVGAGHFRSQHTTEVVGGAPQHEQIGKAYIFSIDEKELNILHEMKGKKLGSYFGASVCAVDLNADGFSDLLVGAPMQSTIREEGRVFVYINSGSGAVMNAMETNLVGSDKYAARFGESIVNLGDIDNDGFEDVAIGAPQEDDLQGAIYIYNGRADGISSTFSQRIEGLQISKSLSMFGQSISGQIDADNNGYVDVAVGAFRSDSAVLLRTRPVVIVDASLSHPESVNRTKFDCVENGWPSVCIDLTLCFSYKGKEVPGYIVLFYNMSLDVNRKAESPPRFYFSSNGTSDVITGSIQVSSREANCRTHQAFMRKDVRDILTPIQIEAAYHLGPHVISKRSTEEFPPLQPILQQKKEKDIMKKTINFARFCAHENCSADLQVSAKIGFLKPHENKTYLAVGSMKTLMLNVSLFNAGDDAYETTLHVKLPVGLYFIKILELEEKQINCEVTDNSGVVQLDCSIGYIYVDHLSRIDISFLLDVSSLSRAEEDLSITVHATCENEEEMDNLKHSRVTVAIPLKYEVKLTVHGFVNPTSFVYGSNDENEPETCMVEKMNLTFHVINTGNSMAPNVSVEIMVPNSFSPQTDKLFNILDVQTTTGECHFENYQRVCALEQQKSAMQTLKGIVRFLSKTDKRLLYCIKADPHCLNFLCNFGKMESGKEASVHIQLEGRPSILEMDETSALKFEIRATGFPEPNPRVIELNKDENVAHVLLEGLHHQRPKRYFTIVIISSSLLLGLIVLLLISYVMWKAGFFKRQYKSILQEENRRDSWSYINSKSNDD
Sequence (P05556 21-798): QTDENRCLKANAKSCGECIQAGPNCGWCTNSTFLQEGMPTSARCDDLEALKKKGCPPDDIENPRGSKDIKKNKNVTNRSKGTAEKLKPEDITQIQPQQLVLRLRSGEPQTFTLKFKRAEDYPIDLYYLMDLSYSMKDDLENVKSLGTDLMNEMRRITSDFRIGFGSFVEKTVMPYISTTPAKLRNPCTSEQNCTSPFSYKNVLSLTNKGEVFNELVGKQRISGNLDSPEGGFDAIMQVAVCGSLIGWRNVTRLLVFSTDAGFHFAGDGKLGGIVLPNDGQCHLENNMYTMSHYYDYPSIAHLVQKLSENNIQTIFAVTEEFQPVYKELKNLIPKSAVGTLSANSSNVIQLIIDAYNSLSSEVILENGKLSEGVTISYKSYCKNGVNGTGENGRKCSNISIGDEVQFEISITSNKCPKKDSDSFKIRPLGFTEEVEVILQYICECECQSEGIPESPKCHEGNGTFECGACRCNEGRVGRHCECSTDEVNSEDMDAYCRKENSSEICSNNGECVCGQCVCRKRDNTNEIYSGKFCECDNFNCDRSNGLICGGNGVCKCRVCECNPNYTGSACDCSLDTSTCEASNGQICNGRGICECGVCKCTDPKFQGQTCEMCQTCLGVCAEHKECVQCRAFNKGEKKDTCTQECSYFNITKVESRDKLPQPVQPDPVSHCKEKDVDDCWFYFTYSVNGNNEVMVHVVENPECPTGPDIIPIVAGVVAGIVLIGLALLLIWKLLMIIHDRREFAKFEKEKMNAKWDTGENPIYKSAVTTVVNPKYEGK
protocol.summary: a4b1 Cell Capture Assay (Jurkat cells on VCAM-1 Fc coated plates)
Type: cell-based
test.context: 50% human serum, 1 mM MgCl2, 1 hour incubation, CellTiter-Glo luminescence
recorded.endpoint: EC50 (nM)

See these solved cases before continuing.
compound	EC50 [nM]
Cc1cc(Cl)cc2c1-c1cc(c(F)c(C(F)(F)F)c1)[C@H](CC(=O)O)NC(=O)[C@@H](n1cc(CCN3CC(F)C3)c(C(F)(F)F)cc1=O)c1cccc(c1)O2 (single isomer, unassigned)	4580
Cc1cc(C2CC2)cc2c1-c1cc(c(F)c(C(F)(F)F)c1)[C@H](CC(=O)O)NC(=O)[C@@H](n1cc(CCN3CC(F)C3)c(C(F)(F)F)cc1=O)c1cccc(c1)O2 (relative stereo)	11900
Cc1cc2cc(c1F)[C@H](CC(=O)O)NC(=O)[C@@H](n1cc(CCN3CC(F)C3)c(C(F)(F)F)cc1=O)c1cc(Cl)cc(c1)Oc1cccc(C)c1-2 (single isomer, unassigned)	359
Cc1cc(C)c2c(c1)Oc1cccc(c1)[C@H](n1cc(CCCN(C)C)c(C(F)(F)F)cc1=O)C(=O)N[C@@H](CC(=O)O)c1cn-2nc1C(F)(F)F (relative stereo)	689

P = Cc1cc2cc(c1F)[C@H](CC(=O)O)NC(=O)[C@@H](n1cc(CCN3CC(F)C3)c(C(F)(F)F)cc1=O)c1cccc(c1)Oc1cccc(C)c1-2 (relative stereo)
Q = Cc1cccc2c1-c1cc(c(F)c(C(F)(F)F)c1)[C@H](CC(=O)O)NC(=O)[C@@H](n1cc(CCN3CC(F)C3)c(C(F)(F)F)cc1=O)c1cc(Cl)cc(c1)O2 (relative stereo)
R = Cc1cc2cc(c1F)[C@H](CC(=O)O)NC(=O)[C@@H](n1cc(CCN3CC(F)C3)c(C(F)(F)F)cc1=O)c1cc(ccc1F)Oc1cccc(C)c1-2 (relative stereo)
IN: // sort entries: EC50, high to low Put the labels in the requested order and list them out.
OUT: P, Q, R
(P: 2080 nM, Q: 880 nM, R: 61.5 nM)
